The measured values listed here are drawn from PubChem BioAssay (NCI).

Tested on: TK-10 renal
method_notes: NCI tumour cell line growth inhibition, 48 h
Kindly state TGI for each of the entries shown.

Answered examples (4):
CC(C)c1nc(CN(C)C(=O)N[C@H](C(=O)N[C@@H](Cc2ccccc2)C[C@H](O)[C@H](Cc2ccccc2)NC(=O)OCc2cncs2)C(C)C)cs1: > 92.6 µM
C/C(CC(=O)Nc1ccc(C)cc1C)=N/N=C(N)N: > 100 µM
Brc1cccc(C=NC23CC4CC(CC(C4)C2)C3)c1: > 100 µM
Cc1nc(C)c(Cc2ccccc2)o1: > 100 µM

Items follow; give TGI for each.
1. [Cl-].[Dy+3].[O-]/N=C(\c1ccccc1)c1ccccn1.[O-]/N=C(\c1ccccc1)c1ccccn1.[O-]/N=C(\c1ccccc1)c1ccccn1
2. COCc1nc2c(OC)cc(-c3nc4ccc(N5CCN(C)CC5)cc4[nH]3)c(OC)c2[nH]1
3. CSC(C1c2ccccc2N(c2ccc(C)cc2)C2=NC(=O)N(C)C(=O)C21Cl)S(=O)(=O)c1ccc(C)cc1 (configuration not stated)
4. FC(F)(F)c1cccc(Nc2nccc(-c3cnn4nc(-c5ccccc5)ccc34)n2)c1
5. CCOC(=O)[C]1([Bi]([CH3])[CH3])N=NC(C(=O)OC)=C1C(=O)OC (configuration not stated)
6. CC(C)(C)C1C=C(Sc2ccccc2)C(=O)O1 (configuration not stated)

1. > 100 µM
2. > 100 µM
3. > 100 µM
4. > 19.2 µM
5. 32.1 µM
6. > 100 µM
